Field: GI50. Provide a value for each of the compounds that follow.
- System: SNB-75
- methodSummary: NCI tumour cell line growth inhibition, 48 h
Active and inactive are the calls of the source. No stated cut-off is given here; in the data, active = GI50 up to about 1.1 µM and inactive = higher.

Param request: GI50 | system SNB-75 | item N#Cc1nc(/C=C/c2cccnc2)oc1N
> 100 µM (inactive)

Param request: GI50 | system SNB-75 | item O=S1(=O)c2ccccc2Oc2ccc(C(/C=N/O)=N/O)cc21
45.3 µM (inactive)

Param request: GI50 | system SNB-75 | item Cc1cc(S(=O)(=O)Nc2nc3ccccc3[nH]2)c(S)cc1Cl
> 100 µM (inactive)

Param request: GI50 | system SNB-75 | item CCOP(=O)(OCC)C(C(=O)OC)C(=O)C(=O)Nc1ccc(Cl)cc1Cl (stereo not given)
> 100 µM (inactive)

Param request: GI50 | system SNB-75 | item N#Cc1c(-c2nc3ccccc3s2)c(=O)oc2cc(O)ccc12
> 100 µM (inactive)

Param request: GI50 | system SNB-75 | item CC(=O)OC1C2CCC3C(C)(O)C4CC(O)C(C)(C)C4(O)C(O)CC13CC2(C)O (stereo not given)
> 100 µM (inactive)

Param request: GI50 | system SNB-75 | item COC(=O)C12CCC(C(=O)OC)(Cc3c(c4ccccc4n3S(=O)(=O)c3ccccc3)C1)C2=O (stereo not given)
> 60.7 µM (inactive)

Param request: GI50 | system SNB-75 | item COc1cc2ccc1OCc1cccc(n1)COc1ccc(cc1OC)/C=N\CCNCCNCC/N=C\2
> 100 µM (inactive)

Param request: GI50 | system SNB-75 | item O=c1c(C(c2ccc(/C=C/c3ccccc3)cc2)c2c(O)oc3cc(O)ccc3c2=O)c(O)oc2cc(O)ccc12
29 µM (inactive)

Param request: GI50 | system SNB-75 | item N#Cc1ncn(-c2ccccc2)c1N
> 100 µM (inactive)
